# TEST_METHOD_NOTES: Toxicity liver stage against HepG2, at 10uM
# Format: cell-based
# Design: test concentration 10 uM, cell line HepG2-A16-CD81EGFP
# ASSAY_CONDITIONS: human, HepG2-A16-CD81EGFP cells; read-out: INHIBITION
ENDPOINT_NAME: cytotoxicity at 10 µM (%)
Dear colleague, please return just the value in %, with no unit written.

CC(O)CN1CCC(CN(C)Cc2cc(C#N)ccc2F)CC1 (stereo unspecified)    2.05
Cc1ccccc1OCCn1cnc2oc(C)c(C(=O)O)c2c1=O    11
Cn1c(CO[C@H]2CN(S(C)(=O)=O)C[C@H]2F)nc2ccccc21    -0.714
CS(=O)(=O)N1Cc2nc(C(=O)NCc3ccccc3)oc2C1    -3.46

Reported cytotoxicity at 10 µM, compound CNC(=O)c1cc2c(nc1NCC1CC1)CCN(CC1CC1)CC2 : ____ 0.864

Reported cytotoxicity at 10 µM, compound COC(=O)c1sccc1CN1CCN(C(=O)c2ccc(C)o2)CC1 : ____ 2.37

Reported cytotoxicity at 10 µM, compound Cc1nnc(SCc2cccc(F)c2)n1CC(N)=O : ____ -6.58

Reported cytotoxicity at 10 µM, compound CNC(=O)C(C)CNC(=O)c1coc(COc2cccc(F)c2F)n1 (stereo unspecified) : ____ 5.21

Reported cytotoxicity at 10 µM, compound CS(=O)(=O)N[C@H]1CCO[C@]2(CCN(CC3CCOCC3)C2)C1 : ____ -122

Reported cytotoxicity at 10 µM, compound CCc1nnc(SCc2cc(=O)n3c4c(sc3n2)CCCC4)[nH]1 : ____ -3.91

Reported cytotoxicity at 10 µM, compound Cc1cc(-c2cnn(CCNC(=O)c3cc[nH]n3)c2C2CC2)on1 : ____ -13.6
